Biological target: T1, human CD22, endogenous on Raji cells (human, UniProt P20273 20-847)
T1 construct: whole, on cells; Endogenous protein of the Raji cell line
T1 sequence (looked up): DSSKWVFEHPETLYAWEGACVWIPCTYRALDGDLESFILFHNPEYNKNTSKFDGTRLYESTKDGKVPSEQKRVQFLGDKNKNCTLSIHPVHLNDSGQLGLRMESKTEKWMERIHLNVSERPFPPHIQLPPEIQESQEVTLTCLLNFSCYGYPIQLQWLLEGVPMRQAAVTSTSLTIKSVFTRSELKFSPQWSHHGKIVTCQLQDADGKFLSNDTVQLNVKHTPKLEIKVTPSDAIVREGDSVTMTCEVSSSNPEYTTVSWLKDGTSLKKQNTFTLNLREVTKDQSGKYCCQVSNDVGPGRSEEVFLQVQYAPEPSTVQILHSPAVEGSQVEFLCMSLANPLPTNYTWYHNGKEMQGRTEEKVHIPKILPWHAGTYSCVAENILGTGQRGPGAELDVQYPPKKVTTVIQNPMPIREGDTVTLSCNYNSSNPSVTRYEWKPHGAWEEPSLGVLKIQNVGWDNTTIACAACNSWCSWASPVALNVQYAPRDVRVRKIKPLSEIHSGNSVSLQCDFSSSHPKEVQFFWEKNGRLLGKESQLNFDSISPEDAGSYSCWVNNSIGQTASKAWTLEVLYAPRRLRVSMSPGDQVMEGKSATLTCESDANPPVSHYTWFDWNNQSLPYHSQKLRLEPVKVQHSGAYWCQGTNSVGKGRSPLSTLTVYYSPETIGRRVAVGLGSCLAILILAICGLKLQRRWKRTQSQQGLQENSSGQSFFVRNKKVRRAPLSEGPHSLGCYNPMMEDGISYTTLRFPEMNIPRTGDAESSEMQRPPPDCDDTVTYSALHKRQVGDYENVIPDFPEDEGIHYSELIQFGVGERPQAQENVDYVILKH
Test: FACS, Raji cells
Recorded Maximum mean fluorescence intensity, one value per entry.
MEASUREMENT_KIND: Maximum mean fluorescence intensity (MFI)

| BINDER | RESULT_UNIT | OBSERVED_MEASUREMENT |
| --- | --- | --- |
| F1.120.15 human-murine chimeric antibody (antibody, human IgG1, kappa, V domains shown, Chimeric, human IgG1 / kappa) VH: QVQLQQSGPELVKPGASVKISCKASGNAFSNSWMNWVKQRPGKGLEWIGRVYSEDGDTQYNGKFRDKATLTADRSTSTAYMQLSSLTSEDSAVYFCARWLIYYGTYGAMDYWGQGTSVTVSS VL: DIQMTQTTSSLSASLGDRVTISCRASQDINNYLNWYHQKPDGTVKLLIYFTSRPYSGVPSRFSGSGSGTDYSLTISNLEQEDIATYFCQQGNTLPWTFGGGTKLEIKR | MFI | 23700 |
| F1.62.10 human-murine chimeric antibody (antibody, human IgG1, kappa, V domains shown, Chimeric, human IgG1 / kappa) VH: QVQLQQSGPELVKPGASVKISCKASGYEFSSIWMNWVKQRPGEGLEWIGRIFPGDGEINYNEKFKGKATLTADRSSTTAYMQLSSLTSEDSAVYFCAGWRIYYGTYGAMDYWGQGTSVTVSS VL: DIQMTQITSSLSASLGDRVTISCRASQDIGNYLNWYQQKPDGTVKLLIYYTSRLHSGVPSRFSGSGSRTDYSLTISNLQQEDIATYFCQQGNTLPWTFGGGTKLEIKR | MFI | 25600 |
| F1.245.2 human-murine chimeric antibody (antibody, human IgG1, kappa, V domains shown, Chimeric, human IgG1 / kappa) VH: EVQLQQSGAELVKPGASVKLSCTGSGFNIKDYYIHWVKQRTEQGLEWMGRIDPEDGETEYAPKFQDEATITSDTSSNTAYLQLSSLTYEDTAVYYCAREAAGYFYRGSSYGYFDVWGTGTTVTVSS VL: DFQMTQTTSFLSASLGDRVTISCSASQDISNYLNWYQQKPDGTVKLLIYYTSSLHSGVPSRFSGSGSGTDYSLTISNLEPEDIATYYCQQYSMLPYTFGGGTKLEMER | MFI | 29900 |
